experiment: Solubility assessment, visually estimated by dosing solvent aliquots into 10.0 mg API; format: physicochemical; settings: organic solvent or mixture, thermodynamic from solid; Toluene, 40° C.; read-out: Solubility at 40° C.
Assay Readout: solubility

[[record]]
compound = "Cc1cnc(Nc2ccc(OCCN3CCCC3)cc2)nc1Nc1cccc(S(=O)(=O)NC(C)(C)C)c1 [Form A]"
result = "< 5000 µg/mL"


----------
experiment: Solubility assessment, visually estimated by dosing solvent aliquots into 10.0 mg API; type: physicochemical; conditions: organic solvent or mixture, thermodynamic from solid; MeCN, RT; read-out: Solubility at RT
Assay Readout: solubility

[[record]]
compound = "Cc1cnc(Nc2ccc(OCCN3CCCC3)cc2)nc1Nc1cccc(S(=O)(=O)NC(C)(C)C)c1 [Form A]"
result = "< 5000 µg/mL"

